molecular target: Voltage-gated potassium channel subunit beta-2 (Rattus norvegicus); assay: inhibitors of rat Kvbeta2 reductase activity – biochemical, NADPH fluorescence, primary screen (AID 622); details: recombinant KvBeta, 4-cyanobenzaldehyde reduction, at 10 µM, hits give high values;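 also: slope of raw intensity against log time taken from 70 to 1610 s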
If the reported fluorescence slope equals or exceeds -0.5, assign t. If not, assign f.

Could you please find out whether O=C(O)CCN1C(=O)c2ccccc2C1=O has fluorescence slope that meets -0.5 or exceeds it? f

Does the reported fluorescence slope for O=c1[nH]c2ccc(S(=O)(=O)N3CCN(C4CCCCC4)CC3)cc2[nH]c1=O fall at or above the -0.5 mark? t

# check: fluorescence slope of CCOC(=O)C1=C(C)Nc2ncnn2C1c1ccccc1F (stereo unspecified) is greater than or equal to -0.5 f

API: above_or_equal(metric=fluorescence slope, cutoff=-0.5) for item CCc1ccccc1N=C1SCC(=O)N1C t

Item CCCCCn1c(=O)[nH]c2cc(C(=O)NCCN3CCOCC3)ccc2c1=O with fluorescence slope of -0.5 or above? t

Reported fluorescence slope reaches at least -0.5 for CCNC(=O)c1ccc(NS(=O)(=O)c2ccccc2)cc1 ? f
